The reported measurements were obtained from ChEMBL document CHEMBL4118210.

test system: COLO 205; assay: Antiproliferative activity against human COLO205 cells by MTT assay; type: functional, cell-based; settings: read-out: IC50
parameter-measured: IC50

{"columns": ["chemical-structure", "assayed-target", "IC50"],
 "data": [
  ["CCCn1cnc2c(oc3nc(-c4ccccc4)cc(C(F)(F)F)c32)c1=O", "COLO 205", "> 220 µg/mL"],
  ["CCCNC(=O)c1oc2nc(-c3ccccc3)cc(C(F)(F)F)c2c1N", "COLO 205", "38.9 µM"],
  ["Cn1cnc2c(oc3nc(-c4ccccc4)cc(C(F)(F)F)c32)c1=O", "COLO 205", "> 220 µg/mL"],
  ["O=c1c2oc3nc(-c4ccccc4)cc(C(F)(F)F)c3c2ncn1/N=C/c1ccccc1", "COLO 205", "> 220 µg/mL"],
  ["O=c1c2oc3nc(-c4cccs4)cc(C(F)(F)F)c3c2ncn1/N=C/c1ccc(Br)cc1", "COLO 205", "> 220 µg/mL"],
  ["CCn1cnc2c(oc3nc(-c4ccccc4)cc(C(F)(F)F)c32)c1=O", "COLO 205", "> 220 µg/mL"],
  ["CCn1c(C)nc2c(oc3nc(-c4ccccc4)cc(C(F)(F)F)c32)c1=O", "COLO 205", "> 220 µg/mL"],
  ["CCn1cnc2c(oc3nc(-c4cccs4)cc(C(F)(F)F)c32)c1=O", "COLO 205", "> 220 µg/mL"],
  ["O=c1c2oc3nc(-c4cccs4)cc(C(F)(F)F)c3c2ncn1C1CCCC1", "COLO 205", "42.5 µM"],
  ["Cc1nc2c(oc3nc(-c4cccs4)cc(C(F)(F)F)c32)c(=O)n1C1CCCC1", "COLO 205", "> 220 µg/mL"]
]}

Can you give me IC50 for all of these, one by one?
1. CCCn1c(C)nc2c(oc3nc(-c4ccccc4)cc(C(F)(F)F)c32)c1=O
2. Nc1c(C(=O)NC2CCCC2)oc2nc(-c3cccs3)cc(C(F)(F)F)c12
3. CNC(=O)c1oc2nc(-c3ccccc3)cc(C(F)(F)F)c2c1N

1: > 220 µg/mL; 2: 18.4 µM; 3: 36.8 µM
